B1: VH:VL chains; a variant is named by its letters at X, in order (parent)
chain 1: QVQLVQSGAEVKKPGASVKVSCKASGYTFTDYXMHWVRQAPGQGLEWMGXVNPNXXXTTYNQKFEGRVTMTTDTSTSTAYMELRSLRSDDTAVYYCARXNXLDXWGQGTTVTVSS
chain 2: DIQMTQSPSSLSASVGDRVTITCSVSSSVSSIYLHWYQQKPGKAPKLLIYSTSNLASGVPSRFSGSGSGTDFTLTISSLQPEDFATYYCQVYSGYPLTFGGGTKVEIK

# Variants of: B1
# ASSAY: yeast display scFab, FACS + sequencing
MEASURE_NAME: non-specific binding call

Sample records with non-specific binding call:
[[record]]
mutant_id = "SKGKGAGF"
measure_name = "non-specific binding call"
observed_value = "binds"

[[record]]
mutant_id = "YEKGGAGD"
measure_name = "non-specific binding call"
observed_value = "no binding"

[[record]]
mutant_id = "SEARSALD"
measure_name = "non-specific binding call"
observed_value = "no binding"

[[record]]
mutant_id = "YRRRGYGD"
measure_name = "non-specific binding call"
observed_value = "binds"


Continue with the variant presented below.
Task item: Look at this variant and give its reported non-specific binding call. YKERGDVF
Reply: binds
